Here the recorded melting point is given for each entry.

Answered cases to consult:
NCc1ccc(N2CC(C(=O)O)OC2=O)cc1 (stereo unspecified) ... 211 to 212 °C
c1cc(-c2n[nH]c3c2Cc2ccc(CN4CCCC4)cc2-3)cs1 ... 133 to 134 °C
NC(=O)c1cccc(OCCCCC/C=C\c2ccsc2)c1 ... 71 to 73 °C
Oc1cccc(-c2nc3n(n2)CCc2ccccc2-3)c1 ... 201 to 202 °C
Fc1cc(Br)c(OCc2ccccc2)c(Br)c1 ... 83 °C

Please examine the following record next.
Using the record for CC(Cc1ccc(Cl)cc1Cl)NC(=O)c1cn(C)nc1C(F)F (stereo unspecified) , report its melting point.
157 °C

* * *

readout type: melting point

Answered cases to consult:
C[C@](O)(CBr)C(=O)Nc1ccc([N+](=O)[O-])c(C(F)(F)F)c1 ... 70 to 74 °C
CON1CCN2C(=O)C(c3c(C)cc(C)cc3C)C(=O)N2CC1 ... 229 to 230 °C

Please examine the following record next.
Using the record for C=CCNC(=O)c1cnc(SC)nc1NC(C)C , report its melting point.
159 to 161 °C

* * *

readout type: melting point

Cc1cc2nncn2nc1-c1ccc(C(N)=S)cc1 ... 268 to 272 °C
CC(=O)OC[C@H]1O[C@@H](c2nc(C(N)=O)c(N)[nH]2)[C@H](OC(C)=O)[C@@H]1OC(C)=O ... 128 to 129 °C
CC(C)(C)CN(CC(C)(C)C)C(=O)C(O)(C(=O)O)c1ccc(Cl)c(Cl)c1 (stereo not given) ... 94 to 95 °C
Cc1cc(C)nc(-n2cnc(N)n2)n1 ... 235 to 238 °C

Please examine the following record next.
Using the record for N#CC(C#N)=CN(N=C(C#N)C#N)c1ccc(Br)cc1 , report its melting point.
191 to 192 °C

* * *

readout type: melting point

Answered cases to consult:
Cc1oc2c(C)c(C)c(NC(=O)CC(C)(C)C)c(C)c2c1-c1ccc(C(C)C)cc1 ... 253 to 254 °C
COc1ccc(C2=C(C#N)c3ccc(OC)cc3CC2)cc1 ... 151 °C
COc1ccc(-n2c(=O)n(OCc3ccccc3)c(=O)c3cc(F)c(N4CCCC4)nc32)cc1 ... 186 to 188 °C
CC(=O)NCc1cc2n(n1)-c1ccc([N+](=O)[O-])cc1C(c1ccccc1)=NC2 ... 208 to 211 °C
COc1ccc(S(=O)(=O)C(C)(Cc2ccc(-c3ccccc3)cc2)C(=O)O)cc1 (centres undefined) ... 161 °C

Using the record for CC1CC(C)CN(C(=O)c2ccc(Cl)cc2)C1 (centres undefined) , report its melting point.
114 to 115 °C

Try this compound too: Cc1ccc2c(c1)C(CCCCN1CCN(c3ccc(Cl)cc3)CC1)C(=O)N2 (centres undefined)
159 to 161 °C

Try this compound too: CCN(CC)c1ccc([N+](=O)[O-])c(C(=O)NCC2CCN(C(c3ccccc3)c3ccccc3)CC2)c1
167 to 168 °C

Try this compound too: CCCc1ccc(NC=C(C(=O)OCC)C(=O)c2ccccc2Cl)cc1
98.5 to 104 °C

* * *

readout type: melting point

Answered cases to consult:
CN(C)CCN1C(=O)C(NC(=O)c2ccc(NS(C)(=O)=O)cc2)C(C)(C)SC1=S (stereo not given) ... 158 to 159 °C
CCOC(=O)c1ncc2[nH]c3ccc(-n4cccc4)cc3c2c1C ... 214 to 217 °C
CC(C)=CCCC(C)=CCCC(C)=CCCC(C)=CC=CC(C)=CC(=O)O ... 45.5 to 46.5 °C
CCn1c(C)nc2cc(C(F)(F)F)c(OC)cc21 ... 127 to 130 °C

Please examine the following record next.
Using the record for CC(=O)Nc1cc([N+](=O)[O-])c(F)cc1Cl , report its melting point.
158 to 160 °C

Where do these numbers come from? They come from a melting point compilation (Tetko et al.; mined from patent text by program, amines drawn as free bases though some values may be those of a salt).
